Measured Affinity, listed per entry for reference.
tested_system: Muscarinic acetylcholine receptor M2 (Homo sapiens) (UniProt P08172)
Sequence (P08172 whole entry): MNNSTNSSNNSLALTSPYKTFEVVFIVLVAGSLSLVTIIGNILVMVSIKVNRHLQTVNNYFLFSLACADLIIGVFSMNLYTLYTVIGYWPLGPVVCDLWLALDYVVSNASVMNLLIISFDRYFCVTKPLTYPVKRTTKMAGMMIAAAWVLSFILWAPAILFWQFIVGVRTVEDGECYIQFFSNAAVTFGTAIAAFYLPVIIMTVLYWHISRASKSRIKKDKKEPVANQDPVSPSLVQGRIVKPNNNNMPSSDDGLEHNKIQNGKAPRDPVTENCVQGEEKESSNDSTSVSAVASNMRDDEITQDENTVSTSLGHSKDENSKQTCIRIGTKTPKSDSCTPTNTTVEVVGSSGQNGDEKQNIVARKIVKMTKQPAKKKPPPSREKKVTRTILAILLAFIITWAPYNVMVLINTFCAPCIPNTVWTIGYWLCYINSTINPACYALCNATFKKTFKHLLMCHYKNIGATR
assay_explanation: Binding affinity at the NMS liganded human muscarinic acetylcholine receptor M2 was estimated as log affinity (log1/M)
Hey, just send me the number, nothing else.

Would you please look over these solved cases?
INSERT INTO measurements (compound, tested_system, measured_metric, observed_measurement) VALUES
  ('C=CC[N+]12CC[C@@]34c5cc(OC)c(OC)cc5N5C(=O)C[C@@H]6OCC=C(C1)[C@H](C[C@@H]32)[C@@H]6[C@H]54 (some centres not stated)', 'Muscarinic acetylcholine receptor M2 (Homo sapiens) (UniProt P08172)', 'Affinity', 4.7),
  ('O=C1C[C@@H]2OCC=C3C[N+]4(CC5CCCCC5)CC[C@]56c7ccccc7N1[C@H]5[C@H]2[C@H]3C[C@@H]64 (some centres not stated)', 'Muscarinic acetylcholine receptor M2 (Homo sapiens) (UniProt P08172)', 'Affinity', 5.5),
  ('O=C1C[C@@H]2OCC=C3C[N+]4(Cc5ccc(-c6ccccc6)cc5)CC[C@]56c7ccccc7N1[C@H]5[C@H]2[C@H]3C[C@@H]64 (some centres not stated)', 'Muscarinic acetylcholine receptor M2 (Homo sapiens) (UniProt P08172)', 'Affinity', 5.9);

Req: Requested read-out: Affinity. Entry: COc1cc2c(cc1OC)[C@@]13CC[N+]4([O-])CC5=CCO[C@H]6CC(=O)N2[C@H]1[C@H]6[C@H]5C[C@@H]34 (some centres not stated)
Resp: 3.3

Req: Requested read-out: Affinity. Entry: CCC[N+]12CC[C@@]34c5ccccc5N5C(=O)C[C@@H]6OCC=C(C1)[C@H](C[C@@H]32)[C@@H]6[C@H]54 (some centres not stated)
Resp: 5.5

Req: Requested read-out: Affinity. Entry: O=C1C[C@@H]2OCC=C3C[N+]4(Cc5ccc([N+](=O)[O-])cc5)CC[C@]56c7ccccc7N1[C@H]5[C@H]2[C@H]3C[C@@H]64 (some centres not stated)
Resp: 5.6

Req: Requested read-out: Affinity. Entry: COc1cc2c(cc1OC)[C@@]13CC[N+]4(Cc5ccccc5)CC5=CCO[C@H]6CC(=O)N2[C@H]1[C@H]6[C@H]5C[C@@H]34 (some centres not stated)
Resp: 4.8

====

tested_system: Muscarinic acetylcholine receptor M4 (Homo sapiens)
assay_explanation: Binding affinity at the unliganded human muscarinic acetylcholine receptor M4 was estimated as log affinity (log1/M)
measured_metric: Affinity
Hey, just send me the number, nothing else.

Would you please look over these solved cases?
INSERT INTO assay_data (molecule, tested_system, measured_metric, observed_measurement) VALUES
  ('COc1cc2c(cc1OC)[C@@]13CC[N+]4(Cc5ccccc5)CC5=CCO[C@H]6CC(=O)N2[C@H]1[C@H]6[C@H]5C[C@@H]34 (stereo partly specified)', 'Muscarinic acetylcholine receptor M4 (Homo sapiens)', 'Affinity', 4.5),
  ('COc1cc2c(cc1OC)[C@@]13CC[N+]4([O-])CC5=CCO[C@H]6CC(=O)N2[C@H]1[C@H]6[C@H]5C[C@@H]34 (stereo partly specified)', 'Muscarinic acetylcholine receptor M4 (Homo sapiens)', 'Affinity', 3.7),
  ('O=C1C[C@@H]2OCC=C3C[N+]4(Cc5ccc([N+](=O)[O-])cc5)CC[C@]56c7ccccc7N1[C@H]5[C@H]2[C@H]3C[C@@H]64 (stereo partly specified)', 'Muscarinic acetylcholine receptor M4 (Homo sapiens)', 'Affinity', 5);

From here, focus on the item given below.
Req: Requested read-out: Affinity. Entry: C=CC[N+]12CC[C@@]34c5ccccc5N5/C=C6/[C@H]7C[C@H]8[C@@]9(CC[N@@+]8(CC=C)C/C7=C/CO)c7ccccc7N(/C=C(/[C@@H](C[C@@H]31)/C(=C\CO)C2)[C@H]54)[C@@H]69 (stereo partly specified)
Resp: 4.7

====

tested_system: Muscarinic acetylcholine receptor M3 (Homo sapiens)
assay_explanation: Binding affinity at the unliganded human muscarinic acetylcholine receptor M3 was estimated as log affinity (log1/M)
measured_metric: Affinity
Hey, just send me the number, nothing else.

INSERT INTO assay_data (compound, observed_measurement) VALUES
  ('C#CC[N+]12CC[C@@]34c5ccccc5N5C(=O)C[C@@H]6OCC=C(C1)[C@H](C[C@@H]32)[C@@H]6[C@H]54 (some centres not stated)', 4.7),
  ('C=CC[N+]12CC[C@@]34c5cc(OC)c(OC)cc5N5C(=O)C[C@@H]6OCC=C(C1)[C@H](C[C@@H]32)[C@@H]6[C@H]54 (some centres not stated)', 3.8);

Req: Affinity of COc1cc2c(cc1OC)[C@@]13CC[N+]4(N)CC5=CCO[C@H]6CC(=O)N2[C@H]1[C@H]6[C@H]5C[C@@H]34 (some centres not stated) on Muscarinic acetylcholine receptor M3 (Homo sapiens)?
Resp: 3.8

Req: Affinity of O=C1C[C@@H]2OCC=C3C[N+]4(CC5CCCCC5)CC[C@]56c7ccccc7N1[C@H]5[C@H]2[C@H]3C[C@@H]64 (some centres not stated) on Muscarinic acetylcholine receptor M3 (Homo sapiens)?
Resp: 4

====

tested_system: Muscarinic acetylcholine receptor M2 (Homo sapiens) (UniProt P08172)
assay_explanation: Cooperativity with acetylcholine at human muscarinic acetylcholine receptor M2
Measured Cooperativity, listed per entry for reference.
Hey, just send me the number, nothing else.

INSERT INTO results (compound, tested_system, observed_measurement) VALUES
  ('COc1cc2c(cc1OC)[C@@]13CCN4CC5=CCO[C@H]6CC(=O)N2[C@H]1[C@H]6[C@H]5C[C@H]43', 'Muscarinic acetylcholine receptor M2 (Homo sapiens) (UniProt P08172)', 0.8),
  ('COc1cc2c(cc1OC)[C@@]13CC[N+]4(N)CC5=CCO[C@H]6CC(=O)N2[C@H]1[C@H]6[C@H]5C[C@@H]34 (some centres not stated)', 'Muscarinic acetylcholine receptor M2 (Homo sapiens) (UniProt P08172)', 0.8);

From here, focus on the item given below.
Req: Requested read-out: Cooperativity. Entry: COc1cc2c(cc1OC)[C@@]13CC[N+]4(Cc5ccccc5)CC5=CCO[C@H]6CC(=O)N2[C@H]1[C@H]6[C@H]5C[C@@H]34 (some centres not stated)
Resp: 0.8

====

tested_system: Muscarinic acetylcholine receptor M3 (Homo sapiens) (UniProt P20309)
Sequence (P20309 whole entry, looked up): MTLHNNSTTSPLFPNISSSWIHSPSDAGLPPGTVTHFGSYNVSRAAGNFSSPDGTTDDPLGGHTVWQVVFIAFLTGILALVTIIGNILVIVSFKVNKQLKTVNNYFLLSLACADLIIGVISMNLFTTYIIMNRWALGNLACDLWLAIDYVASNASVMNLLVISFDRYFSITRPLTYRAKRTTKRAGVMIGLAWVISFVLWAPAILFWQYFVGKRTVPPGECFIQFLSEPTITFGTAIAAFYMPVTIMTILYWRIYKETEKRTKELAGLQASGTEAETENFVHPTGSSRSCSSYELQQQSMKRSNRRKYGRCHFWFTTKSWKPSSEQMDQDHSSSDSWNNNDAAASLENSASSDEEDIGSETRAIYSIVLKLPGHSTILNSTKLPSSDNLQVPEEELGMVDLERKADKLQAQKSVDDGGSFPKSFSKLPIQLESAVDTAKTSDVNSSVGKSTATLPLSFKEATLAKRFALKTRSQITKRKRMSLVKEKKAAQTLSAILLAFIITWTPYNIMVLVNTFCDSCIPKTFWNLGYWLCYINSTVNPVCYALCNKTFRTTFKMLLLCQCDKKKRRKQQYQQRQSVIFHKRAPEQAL
assay_explanation: Cooperativity with NMS at human muscarinic acetylcholine receptor M3
Measured Cooperativity, listed per entry for reference.
Hey, just send me the number, nothing else.

INSERT INTO measurements (molecule, observed_measurement) VALUES
  ('N[N+]12CC[C@@]34c5ccccc5N5C(=O)C[C@@H]6OCC=C(C1)[C@H](C[C@@H]32)[C@@H]6[C@H]54 (some centres undefined)', 2);

Req: Requested read-out: Cooperativity. Entry: C=CC[N+]12CC[C@@]34c5cc(OC)c(OC)cc5N5C(=O)C[C@@H]6OCC=C(C1)[C@H](C[C@@H]32)[C@@H]6[C@H]54 (some centres undefined)
Resp: 0.8

Req: Requested read-out: Cooperativity. Entry: CC[N+]12CC[C@@]34c5ccccc5N5C(=O)C[C@@H]6OCC=C(C1)[C@H](C[C@@H]32)[C@@H]6[C@H]54 (some centres undefined)
Resp: 1.19

Req: Requested read-out: Cooperativity. Entry: O=C1C[C@@H]2OCC=C3C[N+]4(Cc5ccc([N+](=O)[O-])cc5)CC[C@]56c7ccccc7N1[C@H]5[C@H]2[C@H]3C[C@@H]64 (some centres undefined)
Resp: 1.19

Req: Requested read-out: Cooperativity. Entry: COc1cc2c(cc1OC)[C@@]13CC[N+]4(Cc5ccccc5)CC5=CCO[C@H]6CC(=O)N2[C@H]1[C@H]6[C@H]5C[C@@H]34 (some centres undefined)
Resp: 0.8

Req: Requested read-out: Cooperativity. Entry: O=C1C[C@@H]2OCC=C3C[N+]4(Cc5ccc6ccccc6c5)CC[C@]56c7ccccc7N1[C@H]5[C@H]2[C@H]3C[C@@H]64 (some centres undefined)
Resp: 2

Req: Requested read-out: Cooperativity. Entry: O=C1C[C@@H]2OCC=C3C[N+]4(Cc5cccc([N+](=O)[O-])c5)CC[C@]56c7ccccc7N1[C@H]5[C@H]2[C@H]3C[C@@H]64 (some centres undefined)
Resp: 2

Req: Requested read-out: Cooperativity. Entry: CCC[N+]12CC[C@@]34c5ccccc5N5C(=O)C[C@@H]6OCC=C(C1)[C@H](C[C@@H]32)[C@@H]6[C@H]54 (some centres undefined)
Resp: 0.8

Req: Requested read-out: Cooperativity. Entry: O=C1C[C@@H]2OCC=C3C[N+]4(CC5CCCCC5)CC[C@]56c7ccccc7N1[C@H]5[C@H]2[C@H]3C[C@@H]64 (some centres undefined)
Resp: 2

====

Measured Cooperativity, listed per entry for reference.
tested_system: UniProt:P20309
assay_explanation: Cooperativity with NMS at human muscarinic acetylcholine receptor M3
Hey, just send me the number, nothing else.

Would you please look over these solved cases?
INSERT INTO measurements (compound, measured_metric, observed_measurement) VALUES
  ('COc1cc2c(cc1OC)[C@@]13CC[N+]4(CCl)CC5=CCO[C@H]6CC(=O)N2[C@H]1[C@H]6[C@H]5C[C@@H]34 (some centres undefined)', 'Cooperativity', 0.2),
  ('N#CC[N+]12CC[C@@]34c5ccccc5N5C(=O)C[C@@H]6OCC=C(C1)[C@H](C[C@@H]32)[C@@H]6[C@H]54 (some centres undefined)', 'Cooperativity', 2),
  ('C=CC[N+]12CC[C@@]34c5ccccc5N5/C=C6/[C@H]7C[C@H]8[C@@]9(CC[N@@+]8(CC=C)C/C7=C/CO)c7ccccc7N(/C=C(/[C@@H](C[C@@H]31)/C(=C\CO)C2)[C@H]54)[C@@H]69 (some centres undefined)', 'Cooperativity', 0.8),
  ('COc1cc2c(cc1OC)[C@@]13CC[N+]4(C)CC5=CCO[C@H]6CC(=O)N2[C@H]1[C@H]6[C@H]5C[C@@H]34 (some centres undefined)', 'Cooperativity', 1.19),
  ('O=C1C[C@@H]2OCC=C3C[N+]4([O-])CC[C@]56c7ccccc7N1[C@H]5[C@H]2[C@H]3C[C@@H]64 (some centres undefined)', 'Cooperativity', 2),
  ('COc1cc2c(cc1OC)[C@@]13CC[N+]4(N)CC5=CCO[C@H]6CC(=O)N2[C@H]1[C@H]6[C@H]5C[C@@H]34 (some centres undefined)', 'Cooperativity', 1.19),
  ('O=C1C[C@@H]2OCC=C3C[N+]4(CCc5ccccc5)CC[C@]56c7ccccc7N1[C@H]5[C@H]2[C@H]3C[C@@H]64 (some centres undefined)', 'Cooperativity', 0.8),
  ('COc1cc2c(cc1OC)[C@@]13CCN4CC5=CCO[C@H]6CC(=O)N2[C@H]1[C@H]6[C@H]5C[C@H]43', 'Cooperativity', 0.8),
  ('COc1cc2c(cc1OC)[C@@]13CC[N+]4([O-])CC5=CCO[C@H]6CC(=O)N2[C@H]1[C@H]6[C@H]5C[C@@H]34 (some centres undefined)', 'Cooperativity', 1.19),
  ('C[N+]12CC[C@@]34c5ccccc5N5C(=O)C[C@@H]6OCC=C(C1)[C@H](C[C@@H]32)[C@@H]6[C@H]54 (some centres undefined)', 'Cooperativity', 2);

Req: Cooperativity of O=C1C[C@@H]2OCC=C3C[N+]4(Cc5ccccc5)CC[C@]56c7ccccc7N1[C@H]5[C@H]2[C@H]3C[C@@H]64 (some centres undefined) on UniProt:P20309?
Resp: 2

Req: Cooperativity of C#CC[N+]12CC[C@@]34c5ccccc5N5C(=O)C[C@@H]6OCC=C(C1)[C@H](C[C@@H]32)[C@@H]6[C@H]54 (some centres undefined) on UniProt:P20309?
Resp: 0.8

Req: Cooperativity of O=C1C[C@@H]2OCC=C3C[N+]4(Cc5ccc(-c6ccccc6)cc5)CC[C@]56c7ccccc7N1[C@H]5[C@H]2[C@H]3C[C@@H]64 (some centres undefined) on UniProt:P20309?
Resp: 1.19

Req: Cooperativity of C=CC[N+]12CC[C@@]34c5ccccc5N5C(=O)C[C@@H]6OCC=C(C1)[C@H](C[C@@H]32)[C@@H]6[C@H]54 (some centres undefined) on UniProt:P20309?
Resp: 1.19
